- STUDY SYSTEM: NR2F6 (Homo sapiens, UniProt P10588)
- Construct: expressed in transfected cells; also transient transfection
- ASSAY: NR2F6 agonist screening, Firefly signal cmpd/DMSO
- Format: cell-based
- CONDITION SUMMARY: F4; 1% FBS; 0.5 uM
ASSAY ENDPOINT: Firefly, F4, 1% FBS, cmpd/DMSO (mean)

O=S1(=O)C[C@H](NCC2CCCO2)[C@@H](S(=O)(=O)c2cccs2)C1 (some centres unmarked) | 1.0
O=S1(=O)C[C@H](NCc2ccncc2)[C@@H](S(=O)(=O)c2cccs2)C1 | 1.2

(1) O=S1(=O)C[C@H](N2CCCC2)[C@@H](S(=O)(=O)c2cccs2)C1
(2) C[C@@H]1C[C@H](C)CN([C@H]2CS(=O)(=O)C[C@@H]2S(=O)(=O)c2cccs2)C1
Request: 1 or 2 : whose Firefly, F4, 1% FBS, cmpd/DMSO (mean) is greater? // respond with label for picked entry
Response: 2
(2: 1.5, 1: 0.9)

* * *

- STUDY SYSTEM: NR2F6 (Homo sapiens)
- Construct: expressed in transfected cells; also transient transfection
- ASSAY: NR2F6 agonist screening, Firefly signal cmpd/DMSO
- Type: cell-based
- CONDITION SUMMARY: F4; 1% FBS; 40 uM
ASSAY ENDPOINT: Firefly, F4, 1% FBS, cmpd/DMSO (mean)

O=S1(=O)C[C@H](NC2CCCCCC2)[C@@H](S(=O)(=O)c2ccc(Cl)cc2)C1 | 0.6

(1) O=S1(=O)C[C@H](NC2CCCCC2)[C@@H](S(=O)(=O)c2ccccc2)C1
(2) CC(=O)Nc1ccc(S(=O)(=O)[C@H]2CS(=O)(=O)C[C@@H]2NC2CC2)cc1
(3) CCC(C)N[C@H]1CS(=O)(=O)C[C@@H]1S(=O)(=O)c1ccc(Cl)cc1 (stereo partly shown)
(4) COCCCN[C@H]1CS(=O)(=O)C[C@@H]1S(=O)(=O)c1ccc(Cl)cc1
Request: Rank order required: Firefly, F4, 1% FBS, cmpd/DMSO (mean), descending. Provide the ranking by listing each label in its place in the requested order.
Response: 1, 2, 4, 3

* * *

- STUDY SYSTEM: NR2F6 (Homo sapiens, UniProt P10588)
- Construct: expressed in transfected cells; also transient transfection
- Sequence (P10588 1-404): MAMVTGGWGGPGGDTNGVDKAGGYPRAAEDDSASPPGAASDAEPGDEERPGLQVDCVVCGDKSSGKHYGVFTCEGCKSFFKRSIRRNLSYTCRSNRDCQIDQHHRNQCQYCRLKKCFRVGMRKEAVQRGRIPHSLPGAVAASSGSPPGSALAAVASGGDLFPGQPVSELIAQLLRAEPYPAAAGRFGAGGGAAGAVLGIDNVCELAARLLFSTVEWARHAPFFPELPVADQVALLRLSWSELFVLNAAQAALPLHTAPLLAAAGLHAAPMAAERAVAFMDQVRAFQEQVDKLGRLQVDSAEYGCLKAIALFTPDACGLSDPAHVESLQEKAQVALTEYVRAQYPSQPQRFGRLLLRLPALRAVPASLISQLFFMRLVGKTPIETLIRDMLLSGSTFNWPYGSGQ
- ASSAY: NR2F6 agonist screening, Firefly signal cmpd/DMSO
- Assay type: cell-based
- CONDITION SUMMARY: 1% FBS; 10 uM
ASSAY ENDPOINT: Firefly, F4/pGL4 for S/B(F4) > 3

CC1CCN([C@H]2CS(=O)(=O)C[C@@H]2S(=O)(=O)c2cccs2)CC1 | 1.7
C[C@@H]1C[C@H](C)CN([C@H]2CS(=O)(=O)C[C@@H]2S(=O)(=O)c2cccs2)C1 | 2.6
Cc1cccc(CN[C@H]2CS(=O)(=O)C[C@@H]2S(=O)(=O)c2ccc(Cl)cc2)c1 | 1.8
CCCCN[C@H]1CS(=O)(=O)C[C@@H]1S(=O)(=O)c1ccc(Cl)cc1 | 1.9
CC(C)OCCCN[C@H]1CS(=O)(=O)C[C@@H]1S(=O)(=O)c1ccc(Cl)cc1 | 2.7

* * *

- STUDY SYSTEM: ERα (Homo sapiens, UniProt P03372)
- Construct: expressed in transfected cells
- Sequence (P03372 whole entry, species assumed): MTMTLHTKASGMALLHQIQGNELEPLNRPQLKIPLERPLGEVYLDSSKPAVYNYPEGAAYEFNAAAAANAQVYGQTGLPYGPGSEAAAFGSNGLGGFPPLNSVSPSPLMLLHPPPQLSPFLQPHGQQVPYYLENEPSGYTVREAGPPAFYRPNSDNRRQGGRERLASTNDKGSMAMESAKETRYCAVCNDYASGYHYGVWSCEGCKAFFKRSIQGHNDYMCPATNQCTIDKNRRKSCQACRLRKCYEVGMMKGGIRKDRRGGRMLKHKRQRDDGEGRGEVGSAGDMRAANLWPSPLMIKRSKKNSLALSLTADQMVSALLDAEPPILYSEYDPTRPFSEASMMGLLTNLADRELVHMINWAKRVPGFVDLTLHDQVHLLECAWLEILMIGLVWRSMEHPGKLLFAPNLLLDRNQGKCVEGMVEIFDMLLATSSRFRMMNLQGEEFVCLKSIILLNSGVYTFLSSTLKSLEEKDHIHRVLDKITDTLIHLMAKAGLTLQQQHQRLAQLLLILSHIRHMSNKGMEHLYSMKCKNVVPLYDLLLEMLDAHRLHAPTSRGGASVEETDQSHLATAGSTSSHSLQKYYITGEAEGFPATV
- ASSAY: Counterscreening, Firefly signal with ERα transient transfection (Firefly_ERa)
- Type: cell-based
- CONDITION SUMMARY: ERα transient transfection, 10 μM, repeat 2
- Description: The methodology for screening candidate compounds as NR2F6 agonists was as follows: For primary screening, hit criteria was ACT %>DMSO control+5*SD (DSO control) at 10 μM, or any compound with S/B>2. For rescreening, hit criteria was ACT %>DMSO control+3*SD (DSO control) in each replicate at 10 μM. For counterscreening, hit criteria was mean ACT<DMSO control+3*SD (DMSO control) with ERα transient transfection in duplicate at 10 μM.
ASSAY ENDPOINT: Firefly_ERa, cmpd/DMSO repeat 2

CNC(=O)c1ccc2c(c1)N=C(C)c1cc(C)ccc1S2 [Compound C9] | 2.4
COc1ccc(-c2cn3cccc(C)c3n2)cc1 [Compound 19] | 2.4

(I) COC(=O)c1ccc2oc(=O)c(S(=O)(=O)c3ccccc3)cc2c1 [Compound C11]
(II) CCn1c(=O)c2cc(C(=O)Nc3ccc4c(C)cc(=O)oc4c3)sc2c2ccccc21 [Compound C16]
Request: I or II : whose Firefly_ERa, cmpd/DMSO repeat 2 is greater? // respond with label for picked entry
Response: I
(I: 1.7, II: 0.9)

* * *

- STUDY SYSTEM: NR2F6 LBD (Homo sapiens)
- Construct: expressed in transfected cells
- Sequence (P10588 165-393 limits assumed): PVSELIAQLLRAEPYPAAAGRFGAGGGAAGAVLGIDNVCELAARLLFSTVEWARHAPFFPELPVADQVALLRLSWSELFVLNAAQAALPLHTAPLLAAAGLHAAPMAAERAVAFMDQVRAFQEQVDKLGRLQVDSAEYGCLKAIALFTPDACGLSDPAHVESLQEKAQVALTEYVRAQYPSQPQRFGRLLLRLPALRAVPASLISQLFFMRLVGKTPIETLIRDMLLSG
- ASSAY: NR2F6 LBD transient transfection
- Type: cell-based
- CONDITION SUMMARY: 0.5 uM; LBD
ASSAY ENDPOINT: Firefly LBD, cmpd/DMSO (mean)

O=S1(=O)C[C@H](NCCc2cccs2)[C@@H](S(=O)(=O)c2ccc(Cl)cc2)C1 | 1.0
O=S1(=O)C[C@H](N2CCCCC2)[C@@H](S(=O)(=O)c2cccs2)C1 | 1.2
COc1ccc(CCN[C@H]2CS(=O)(=O)C[C@@H]2S(=O)(=O)c2ccc(Cl)cc2)cc1OC | 1.1
CC(C)CCN[C@H]1CS(=O)(=O)C[C@@H]1S(=O)(=O)c1ccc(Cl)cc1 | 1.3
O=S1(=O)C[C@H](N2CCCC2)[C@@H](S(=O)(=O)c2cccs2)C1 | 1.3
O=S1(=O)C[C@H](NCc2ccncc2)[C@@H](S(=O)(=O)c2cccs2)C1 | 1.0
CC1CCN([C@H]2CS(=O)(=O)C[C@@H]2S(=O)(=O)c2cccs2)CC1 | 1.2
CC(=O)Nc1ccc(S(=O)(=O)[C@H]2CS(=O)(=O)C[C@@H]2NC2CC2)cc1 | 1.1
CCCN[C@H]1CS(=O)(=O)C[C@@H]1S(=O)(=O)c1ccc(Cl)cc1 | 1.1
O=S1(=O)C[C@H](N2CCCCC2)[C@@H](S(=O)(=O)c2ccc(Cl)cc2)C1 | 1.0

(A) COCCCN[C@H]1CS(=O)(=O)C[C@@H]1S(=O)(=O)c1ccc(Cl)cc1
(B) CCCCN[C@H]1CS(=O)(=O)C[C@@H]1S(=O)(=O)c1ccc(Cl)cc1
Request: Parameter metric = Firefly LBD, cmpd/DMSO (mean). Return the lower-valued option from A and B . // respond with label for picked entry
Response: B
(B: 1.0, A: 1.6)

* * *

- STUDY SYSTEM: NR2F6 (Homo sapiens)
- Construct: expressed in transfected cells; also transient transfection
- Sequence (P10588 1-404): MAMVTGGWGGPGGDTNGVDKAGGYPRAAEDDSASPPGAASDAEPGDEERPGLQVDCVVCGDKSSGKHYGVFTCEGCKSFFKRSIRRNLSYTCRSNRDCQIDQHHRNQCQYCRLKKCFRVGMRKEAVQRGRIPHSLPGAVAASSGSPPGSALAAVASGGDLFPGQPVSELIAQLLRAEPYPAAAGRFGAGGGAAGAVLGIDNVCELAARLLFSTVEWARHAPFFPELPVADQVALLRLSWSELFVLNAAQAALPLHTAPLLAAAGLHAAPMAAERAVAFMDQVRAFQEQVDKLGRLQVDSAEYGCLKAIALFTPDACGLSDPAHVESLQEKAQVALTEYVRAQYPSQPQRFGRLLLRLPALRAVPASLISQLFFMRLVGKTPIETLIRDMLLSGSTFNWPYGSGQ
- ASSAY: NR2F6 agonist screening, Firefly signal cmpd/DMSO
- Assay type: cell-based
- CONDITION SUMMARY: Table 15; 10 uM
ASSAY ENDPOINT: Firefly F4, cmpd/DMSO (mean)

(A) CCOC(=O)c1cnc2c(C)cc(C)cc2c1NCCCN1CCCCC1 [Compound Z12]
(B) COc1ccc(-c2noc(Cn3ncc4ccccc4c3=O)n2)cc1
Request: A or B : whose Firefly F4, cmpd/DMSO (mean) is greater? // respond with label for picked entry
Response: A

(I) CCOC(=O)c1cnc2c(C)cc(C)cc2c1NCCCO
(II) Cc1ccc(NC(=O)c2n[nH]c3c2CCCCC3)cc1C
(III) CCOC(=O)c1cnc2c(C)cc(C)cc2c1NCCCN1CCCCC1 [Compound Z19]
Request: Sort (3 molecules) by Firefly F4, cmpd/DMSO (mean): min first. Provide the ranking by listing each label in its place in the requested order.
Response: I, II, III
